Source listed as paper PMC2866756.

# Lookup of reported pEC50 keyed by entry
- System: VZV
- assay_procedure: Antiviral assay, VZV yield by infectious focus
- Type: cell-based, Varicella-zoster virus
- condition_notes: read-out: VZV EC50 (titer); HFFs, 48 h, titered on MeWo cells
Answer as the number alone; pEC50 is minus log10 of concentration in mol/L.

These recorded examples may help you get a feel for the data.
{"columns": ["compound", "pEC50"],
 "data": [
  ["OC[C@H]1O[C@@H](n2cnc3cc(Cl)c(Cl)cc32)[C@H](O)[C@@H]1O [DRB, Dichloro-β-D-ribofurano-sylbenzimidazole]", 5.30],
  ["C[S+](C)[O-] [DMSO, Dimethylsulfoxide]", 1.12]
]}

Kindly review the next compound as well.
### Prompt Requested read-out: pEC50. Entry: CC[C@@H](CO)Nc1nc(NCc2ccccc2)c2ncn(C(C)C)c2n1 [S-Roscovitine]
### Response 5.60

---

- Tested on: VZV
- assay_procedure: Antiviral assay, VZV genome copy number by quantitative PCR
- Format: cell-based, Varicella-zoster virus
- condition_notes: Human alphaherpesvirus 3, 48 h, read-out: VZV EC50 (qPCR)
measured_attribute: pEC50
To interpret pEC50, take it as minus log10 of a concentration measured in moles per litre.

Reference set, count: 4
{"columns": ["compound", "endpoint_value"],
 "data": [
  ["CCCCc1c(-c2ccc(O)cc2)[nH]c2nccnc12 [Aloisine A]", 5.70],
  ["O=C(O)CP(=O)(O)O [Phosphonoacetic acid (PAA), Phosphonoacetic acid]", 3.30],
  ["Nc1nc2c(ncn2COCCO)c(=O)[nH]1 [Acyclovir]", 5.30],
  ["CC[C@H](CO)Nc1nc(NCc2ccccc2)c2ncn(C(C)C)c2n1 [R-Roscovitine]", 5.52]
]}

Next, consider the following compound.
### Prompt So what's the measured pEC50 for this one? N[C@@H](Cn1ccc(=O)c(O)c1)C(=O)O [L-mimosine]
### Response 4.30
